# TARGET_ENTITY: human ALK5 (Homo sapiens)
# Construct: human ALK5 (recombinant TGF β1 N-term GST-tagged, 80-end); GST (N)
# Sequence (P36897 80-503 limits assumed): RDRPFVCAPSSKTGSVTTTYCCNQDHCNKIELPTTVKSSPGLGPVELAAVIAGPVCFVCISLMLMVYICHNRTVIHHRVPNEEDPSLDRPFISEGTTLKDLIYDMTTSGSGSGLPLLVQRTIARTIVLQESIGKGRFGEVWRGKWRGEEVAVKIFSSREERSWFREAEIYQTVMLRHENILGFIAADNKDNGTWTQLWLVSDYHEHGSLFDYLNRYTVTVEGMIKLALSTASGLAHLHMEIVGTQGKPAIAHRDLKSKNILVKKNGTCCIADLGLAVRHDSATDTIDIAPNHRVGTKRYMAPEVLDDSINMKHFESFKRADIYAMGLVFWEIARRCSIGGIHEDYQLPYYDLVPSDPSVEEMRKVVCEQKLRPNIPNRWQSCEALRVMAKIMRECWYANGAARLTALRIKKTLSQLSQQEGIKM
# TEST: ADP-GLO Kinases assay of ALK5 enzymatic activity
# SETUP_CONDITIONS: purified recombinant human ALK5, TGFβ1 peptide substrate, pIC50 converted to pKi by Cheng-Prusoff, high ATP protocol (15 μM) for very potent compounds, 25° C.
ATTRIBUTE_MEASURED: Ki

Provide the reported Ki of each entry below, same order.
1. CN1CCN(CCC(=O)Nc2cc(Nc3cc(-c4cc(Cl)ccc4F)nnc3N(C)C3CCOC3)ccn2)CC1 (racemic)
2. CN1CCN(CCC(=O)Nc2cc(Nc3cc(-c4cc(Cl)ccc4F)nnc3OCC(F)(F)F)ccn2)CC1
3. CN(CCC(O)C(F)(F)F)c1nnc(-c2cc(Cl)ccc2F)cc1Nc1ccnc(NC(=O)CN2C[C@@H]3C[C@H]2CN3C)c1 (single isomer, unassigned) [Example 131]
4. COCCOc1nnc(-c2cc(Cl)ccc2F)cc1Nc1ccnc(NC(=O)CCN2CCN(CC(F)(F)F)CC2)c1
5. COC(=O)c1sc(Nc2cc(Nc3cc(-c4cc(Cl)ccc4F)nnc3SCCO)ccn2)cc1C1CCN(C)CC1
6. COCCOc1nnc(-c2cc(Cl)ccc2F)cc1Nc1ccnc(NC(=O)CCN2CCN(C)CC2)c1
7. O=C(CCN1CCNCC1)Nc1cc(Nc2cc(-c3cc(Cl)ccc3F)nnc2SCCO)ccn1
8. CN(CCC(O)C(F)(F)F)c1nnc(-c2cc(Cl)ccc2F)cc1Nc1ccnc(NC(=O)CN2C[C@@H]3C[C@H]2CN3C)c1 (mixture of isomers) [Example 130]

OUT:
≤ 0.1 nM
≤ 0.1 nM
≤ 0.1 nM
≤ 0.1 nM
≤ 0.1 nM
≤ 0.1 nM
≤ 0.1 nM
≤ 0.1 nM

Below is a list of compounds. For each, state its recorded Ki.
1. CN1CCN([C@H]2C[C@@H](C(=O)Nc3cc(Nc4cc(-c5cc(Cl)ccc5F)nnc4OC4CCOC4)ccn3)C2)CC1 (single isomer, unassigned) [Example 113]
2. CN1CCN(CCC(=O)Nc2cc(Nc3cc(-c4cc(Cl)ccc4F)nnc3N3CC(C(=O)O)C3)ccn2)CC1
3. CN1CCN(CCC(=O)Nc2cc(Nc3cc(-c4cc(Cl)ccc4F)nnc3SCC3CCCC(=O)O3)ccn2)CC1 (racemic)
4. COc1ccc2c(Nc3cc(-c4cc(Cl)ccc4F)nnc3OCCN3CCN(C)CC3)ccnc2c1

OUT:
["0.126 to 0.316 nM", "0.126 to 0.316 nM", "≤ 0.1 nM", "0.126 to 0.316 nM"]

Give Ki for all compounds that follow.
1. CN1CCN([C@H]2C[C@@H](C(=O)Nc3cc(Nc4cc(-c5cc(Cl)ccc5F)nnc4OC4CCOC4)ccn3)C2)CC1 (single isomer, unassigned) [Example 111]
2. COCCOc1nnc(-c2cc(Cl)ccc2F)cc1Nc1ccnc(NC(=O)CCN2CCOCC2)c1
3. CN1CCN(CCC(=O)Nc2cc(Nc3cc(-c4cc(Cl)ccc4F)nnc3N(C)[C@H]3CCOC3)ccn2)CC1 (single isomer, unassigned)
4. CC(C)OC(=O)C1CCN1c1nnc(-c2cc(Cl)ccc2F)cc1Nc1ccnc(NC(=O)CCN2CCN(C)CC2)c1 (racemic)
5. CN1CCN(CCC(=O)Nc2cc(Nc3cc(-c4cc(Cl)ccc4F)nnc3N(C)C)ccn2)CC1
6. CN1CCCN(CC(=O)Nc2cc(Nc3cc(-c4cc(Cl)ccc4F)nnc3OC3CCOC3)ccn2)CC1 (single isomer, unassigned) [Example 73]

OUT:
≤ 0.1 nM
≤ 0.1 nM
0.126 to 0.316 nM
0.398 to 3.16 nM
≤ 0.1 nM
≤ 0.1 nM

Batch request: Ki for each of the following compounds.
1. CN(C)CCOc1nnc(-c2cc(Cl)ccc2F)cc1Nc1ccnc2[nH]ncc12
2. CN1CCN(CCC(=O)Nc2cc(Nc3cc(-c4cc(Cl)ccc4F)nnc3SCc3cccc(C(=O)O)c3)ccn2)CC1
3. O=C(CN1CCCNCC1)Nc1cc(Nc2cc(-c3cc(Cl)ccc3F)nnc2SCCO)ccn1
4. CN(C)CCOc1nnc(-c2cc(Cl)ccc2F)cc1Nc1ccnc(NC(=O)C2CC2)c1
5. CN1CCN(CCC(=O)Nc2cc(Nc3cc(-c4cc(Cl)ccc4F)nnc3S(C)(=O)=O)ccn2)CC1
6. CN1CCN(CCOc2nnc(-c3cc(Cl)ccc3F)cc2Nc2ccnc3[nH]ccc23)CC1
7. O=C(CN1CCNCC1)Nc1cc(Nc2cc(-c3cc(Cl)ccc3F)nnc2SCCO)ccn1

OUT:
["0.398 to 3.16 nM", "0.126 to 0.316 nM", "≤ 0.1 nM", "≤ 0.1 nM", "0.126 to 0.316 nM", "0.398 to 3.16 nM", "≤ 0.1 nM"]

Okay, here is my list. What is Ki for each of these?
1. C[C@@H]1CN(CCC(=O)Nc2cc(Nc3cc(-c4cc(Cl)ccc4F)nnc3SCCO)ccn2)C[C@H](C)N1
2. CN1CCN([C@H]2C[C@@H](C(=O)Nc3cc(Nc4cc(-c5cc(Cl)ccc5F)nnc4N(C)CC4(C)CCOC4=O)ncn3)C2)CC1 (single isomer, unassigned; enantiomer 1) [Example 143]

OUT:
≤ 0.1 nM
0.126 to 0.316 nM

---

# TARGET_ENTITY: human ALK5 (Homo sapiens, UniProt P36897)
# Construct: human ALK5 (recombinant TGF β1 N-term GST-tagged, 80-end); GST (N)
# Sequence (P36897 80-503 limits assumed): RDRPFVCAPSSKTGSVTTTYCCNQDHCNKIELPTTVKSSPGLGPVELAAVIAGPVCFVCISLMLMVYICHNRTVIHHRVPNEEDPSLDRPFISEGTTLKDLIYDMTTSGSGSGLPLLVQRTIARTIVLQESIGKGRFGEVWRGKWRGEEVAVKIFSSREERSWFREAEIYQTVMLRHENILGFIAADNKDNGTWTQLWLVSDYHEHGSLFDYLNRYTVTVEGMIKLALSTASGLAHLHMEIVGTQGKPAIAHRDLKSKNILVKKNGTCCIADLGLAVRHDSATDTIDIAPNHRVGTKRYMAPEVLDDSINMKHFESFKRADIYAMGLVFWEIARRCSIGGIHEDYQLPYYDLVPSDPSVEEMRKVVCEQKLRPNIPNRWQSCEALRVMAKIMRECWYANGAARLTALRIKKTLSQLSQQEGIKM
# TEST: ADP-GLO Kinases assay of ALK5 enzymatic activity
# SETUP_CONDITIONS: purified recombinant human ALK5, TGFβ1 peptide substrate, pIC50 converted to pKi by Cheng-Prusoff, high ATP protocol (15 μM) for very potent compounds, 25° C.
ATTRIBUTE_MEASURED: Ki

These solved cases illustrate the format of a correct answer.
[[record]]
compound = "CN1CCN(CCC(=O)Nc2cc(Nc3cc(-c4cc(Cl)ccc4F)nnc3OCc3ccc4c(c3)OC(C)(C)O4)ccn2)CC1 [Example 116]"
result = "0.126 to 0.316 nM"

[[record]]
compound = "CCOC(=O)C(C)(C)CN(C)c1nnc(-c2cc(Cl)ccc2F)cc1Nc1ccnc(NC(=O)CCN2CCN(C)CC2)c1 [Example 145]"
result = "0.126 to 0.316 nM"

[[record]]
compound = "COc1nnc(-c2cc(Cl)ccc2F)cc1Nc1ccnc(NC(=O)CN2CCN(CC(F)(F)F)CC2)c1 [Example 14]"
result = "≤ 0.1 nM"


# map each compound to its Ki
1. CN1CCN(CCC(=O)Nc2cc(Nc3cc(-c4cc(Cl)ccc4F)nnc3N(C)CC3(C)CCOC3=O)ccn2)CC1 (single isomer, unassigned) [Example 128]
2. COCC1(CN(C)c2nnc(-c3cc(Cl)ccc3F)cc2Nc2ccnc(NC(=O)CCN3CCN(C)CC3)c2)CCOC1=O (single isomer, unassigned) [Example 202]
3. C[C@@H]1CN(CC23CC(C(=O)Nc4cc(Nc5cc(-c6cc(Cl)ccc6F)nnc5SCCO)ccn4)(C2)C3)C[C@H](C)N1 [Example 191]
4. CN1C[C@@H]2C[C@H]1CN2CC(=O)Nc1cc(Nc2cc(-c3cc(Cl)ccc3F)nnc2OCc2cccc(O)c2)ccn1 [Example 120]
5. CN1CCCN([C@H]2C[C@@H](C(=O)Nc3cc(Nc4cc(-c5cc(Cl)ccc5F)nnc4SCCO)ccn3)C2)CC1 [Example 155]
6. CN1C[C@@H]2C[C@H]1CN2[C@H]1C[C@H](C(=O)Nc2cc(Nc3cc(-c4cc(Cl)ccc4F)nnc3SCCO)ccn2)C1 [Example 88]
7. C[S+]([O-])CCCOc1nnc(-c2cc(Cl)ccc2F)cc1Nc1ccnc(N)c1 (centres unmarked) [Example 57]

OUT:
1: ≤ 0.1 nM; 2: 0.126 to 0.316 nM; 3: 0.126 to 0.316 nM; 4: ≤ 0.1 nM; 5: 0.126 to 0.316 nM; 6: ≤ 0.1 nM; 7: 0.398 to 3.16 nM

Measured values drawn from patent US20250011299A1 for this set.
